The origin of these recorded values is PubChem BioAssay.

Test: AML differentiation inducers, ER-HoxA9 marrow cells – cell-based, GFP/MAC1 double positive, flow cytometry, validation set, primary screen (AID 588685);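 further: compound exposure lasts four days before antibody staining and flow analysis; 0% = DMSO wells and 100% = 5 µM fulvestrant positive control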
Settings: hits give high values, normalized: vehicle 0, fulvestrant 100
quantityName: differentiation response (%)
Numbers only, in %.

Example molecules with recorded differentiation response:
O=C1C(Cc2ccccc2)NC(=S)N1c1ccccc1 (centres undefined); -28
COc1cccc(NC(=O)C2CC(=O)OC23CCOC(C)(C)C3)c1 (centres undefined); -2.46
COc1ccc(C(=O)NCc2cccnc2)cc1; -24.8

Next item in the queue.
## Task What does the data say about its differentiation response? Entry: c1cnc(N2CCN(Cc3ccc4c(c3)OCO4)CC2)nc1
## Result -13.3

* * *

Target: ATP-binding cassette sub-family B member 6 (Homo sapiens)
Assay: blockers of ABCB6-driven porphyrin uptake – K562-ABCB6 cells, flow cytometry, validation set, pilot screen (AID 588550);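 further: 0% = DMSO wells and 100% = benzethonium chloride 70 µM positive control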
Conditions: K562-ABCB6 porphyrin accumulation, 1 h, at 10 µM, hits give high values
The source made the active and inactive calls.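 The calls were made as follows: active = inhibition above the screen-wide mean plus 3 SD, about 51%; inactive = the rest.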
Answer each item with its documented inhibition.

Example compounds with recorded inhibition:
CCOC(=O)C1=C(C)NC(C)=C(C(=O)OC)C1c1cccc(Cl)c1Cl (centres undefined); 9% (inactive)
CCOC(=O)Cn1c(C)cc(=O)c2ccccc21; 0% (inactive)
CC(=O)C1=C(Nc2ccc(C)cc2)CC(C)(O)C(C(C)=O)C1c1ccco1 (centres undefined); -19% (inactive)

## Task What does the data say about its inhibition? Entry: COc1ccccc1N1CCN(CC(O)COc2cccc3ccccc23)CC1 (centres undefined)
## Result -4% (inactive)

* * *

Assay: reduced mouse 2C T cell binding to pMHC/ICAM-1 vesicles – MLPCN validation set, flow cytometry, LFA-1/ICAM-1 modulator project, pilot screen (AID 2523);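 further: mean PE anti-B7-1 fluorescence of CD8+ cells relative to row control; 100% = QL9-loaded vesicles with DMSO vehicle in the same plate row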
Details: 2C mouse CD8+ T cells, at 7 µM, hits give low values
quantityName: vesicle binding response (%)
One number for each entry, in %.

Example compounds with recorded vesicle binding response:
O=C(CCCN1C(=O)/C(=C\c2cccs2)SC1=S)Nc1ccccn1; 154
O=C(O)CCCCCN=C1CCc2ccccc2N1; 163
Cc1cc(C)nc(NS(=O)(=O)c2ccc(N)cc2)n1; 216
O=C(O)c1cc2cc(F)ccc2[nH]1; 894
Cc1ccc2c(c1)C(O)(C1COC(C)(C)CC1=O)C(=O)N2C (configuration not stated); 214
COc1cc(CNCc2ccc(OC)c(OC)c2OC)cc(OC)c1; 178
Cc1ccc2c(c1)c(C)cc(=O)n2CCC(=O)O; 210
COC(=O)C1=C(C)NC(C)=C(C(=O)OCCN(C)Cc2ccccc2)C1c1cccc([N+](=O)[O-])c1 (configuration not stated); 159

Please supply vesicle binding response for each of the following items, keeping them in order.
1. COCCOC(=O)C1=C(C)NC(C)=C(C(=O)OC(C)C)C1c1cccc([N+](=O)[O-])c1 (configuration not stated)
2. COc1cc2c(cc1OC)/C(=C/c1ccc(Cl)cc1)C(=O)OC2
3. CC12CCCCN1CCCc1c2[nH]c2ccccc12 (configuration not stated)
4. Cc1ccnc2c1NC(=O)c1cccnc1N2C1CC1
5. CCN(CC)c1ccc(C2=NNC(=O)CC2C)cc1[N+](=O)[O-] (configuration not stated)
6. CCN1CCN(C(=S)c2ccc(OC)cc2)CC1
7. CC/C(=C(\c1ccc(O)cc1)c1ccc(OCCN(C)C)cc1)c1ccccc1

## Result
182
155
149
295
189
183
157

Please supply vesicle binding response for each of the following items, keeping them in order.
1. Cc1ccc2c(c1)C(C)(C)[C@]1(C)NC(=O)CCN21
2. O=C(/C=C/c1ccco1)Nc1ccccc1C(=O)O
3. COC1CCN(C(=O)c2ccc(OC3CCN(Cc4ccccn4)CC3)cc2)CC1
4. O=C(O)CCCN1C(=O)NC2NC(=O)NC21 (configuration not stated)
5. C[C@]12CC[C@@H]3c4ccc(O)cc4CC[C@H]3[C@@H]1CC[C@@H]2O
6. Cc1nc(-c2coc3c(CN(C)C)c(O)ccc3c2=O)cs1
7. Cc1ccc2occ(C(=O)c3ccco3)c(=O)c2c1
8. CCOC(=O)C1C(=O)OC2(CCOC(C)(C)C2)C1C(=O)OCC (configuration not stated)

## Result
1. 212
2. 205
3. 133
4. 914
5. 186
6. 143
7. 99.1
8. 8780

Please supply vesicle binding response for each of the following items, keeping them in order.
1. O=C(/C=C/c1ccccc1)c1ccccc1
2. COC(=O)CN1C(=S)N(c2ccc(F)cc2)C(=O)C1CC(=O)Nc1ccccc1 (configuration not stated)
3. COC(=O)c1ccc(-c2ncc(-c3cccc4ccccc34)o2)cc1

## Result
1. 126
2. 189
3. 170
